# Assayed Target: recombinant ROCK1 (amino acids 1-535) (Homo sapiens)
# Construct: recombinant ROCK1 (amino acids 1-535) and ROCK2; purchased ThermoFisher Scientific
# Sequence (Q13464 1-535): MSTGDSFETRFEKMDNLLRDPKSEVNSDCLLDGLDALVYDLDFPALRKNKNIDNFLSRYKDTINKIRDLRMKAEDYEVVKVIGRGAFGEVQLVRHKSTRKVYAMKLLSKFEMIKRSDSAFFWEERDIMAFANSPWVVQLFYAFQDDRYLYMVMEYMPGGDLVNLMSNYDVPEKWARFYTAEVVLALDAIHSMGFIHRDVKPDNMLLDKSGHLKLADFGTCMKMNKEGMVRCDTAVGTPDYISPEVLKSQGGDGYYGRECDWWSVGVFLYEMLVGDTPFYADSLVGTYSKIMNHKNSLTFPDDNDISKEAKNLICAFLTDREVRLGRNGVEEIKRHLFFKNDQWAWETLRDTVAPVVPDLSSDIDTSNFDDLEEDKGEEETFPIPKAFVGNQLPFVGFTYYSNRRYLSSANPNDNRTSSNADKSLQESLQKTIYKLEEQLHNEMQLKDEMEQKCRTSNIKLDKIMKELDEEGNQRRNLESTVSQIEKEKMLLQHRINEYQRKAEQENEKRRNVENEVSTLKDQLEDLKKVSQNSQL
# Measurement Description: Z'-lyte kinase assay, ROCK1
# Format: biochemical
pIC50: −log10 of the molar value.
Please mark Yes if the recorded pIC50 is equal to or greater than 8, and No if it falls below.

Decide: pIC50 of CNC(C(=O)Nc1ccc2[nH]ncc2c1)c1ccc(F)cc1 (stereo not shown) [Example 19] >= 8?
No

Decide: pIC50 of CNC(C(=O)Nc1ccc2[nH]ncc2c1)c1cccc(OC)c1 (stereo not shown) [Example 41] >= 8?
Yes

Decide: pIC50 of O=C(Nc1ccc2[nH]ncc2c1)C1NCc2ccccc21 (stereo not shown) [Example 6] >= 8?
No

Decide: pIC50 of CNC(C(=O)Nc1ccc2[nH]ncc2c1)c1ccccn1 (stereo not shown) [Example 40] >= 8?
No

Decide: pIC50 of CNC(C(=O)Nc1ccc2[nH]ncc2c1)c1ccccc1 (stereo not shown) [Example 2] >= 8?
No

Decide: pIC50 of CC(C)NC(C(=O)Nc1ccc2[nH]ncc2c1)c1ccc(F)cc1 (stereo not shown) [Example 20] >= 8?
No

Decide: pIC50 of CCNC(C(=O)Nc1ccc2[nH]ncc2c1)c1ccc(OC)cc1 (stereo not shown) [Example 26] >= 8?
No

Decide: pIC50 of COc1ccc(C(NC(C)(C)C)C(=O)Nc2ccc3[nH]ncc3c2)cc1 (stereo not shown) [Example 36] >= 8?
No

Decide: pIC50 of CNC(C(=O)Nc1ccc2[nH]ncc2c1)c1ccc(Cl)cc1 (stereo not shown) [Example 16] >= 8?
Yes
